B1: NELF-E aptamer (parent)
chain: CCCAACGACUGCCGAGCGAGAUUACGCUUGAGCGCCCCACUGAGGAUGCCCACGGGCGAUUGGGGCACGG

# Variants of: B1
# Assay Summary: HiTS-RAP
# Experimental Conditions: with NELF-E (Drosophila)
Measured Quantity: pKd
Here pKd is given on a logarithmic scale as minus log10 of the concentration in mol/L.

## Input Recorded pKd for CCCCACGACUGCCGAGCGAGAGUACGCUUGAGCGCCCCACUGAGGAUGCCCACGGGCGAUUGGGGCACGG [A4C U22G] , please?
## Output 8.22

## Input Can you check CCCAUCGAGUGCCGAGCGAGAUUACGCUUGAGCGCCCCACUGAGGAUGCCCACGGGCGAUUGGGGCACGG [A5U C9G] next?
## Output 8.19

## Input Can you check CCCAACGAGUGCCGAGCGAGAUUACGCUUGAGCGCCCCACUGAGGAUGCCCACGGGCGAUUGUGGCACGG [C9G G63U] next?
## Output 7.99

## Input Can you check CCCAACGACUGCUGAGCGAGAUUACGCUUGAGCGCCCCACUGAGGAUGCCCACGAGCGAUUGGGGCACGG [C13U G55A] next?
## Output 8.23

## Input Can you check CCCAACGACGGCCGAUCGAGAUUACGCUUGAGCGCCCCACUGAGGAUGCCCACGGGCGAUUGGGGCACGG [U10G G16U] next?
## Output 8.22

## Input Can you check CCCAGCGACUGCCAAGCGAGAUUACGCUUGAGCGCCCCACUGAGGAUGCCCACGGGCGAUUGGGGCACGG [A5G G14A] next?
## Output 8.18

## Input Can you check CCCAACGACUGCCUAGCGAGAUUACGCUUGAGCGCUCCACUGAGGAUGCCCACGGGCGAUUGGGGCACGG [G14U C36U] next?
## Output 8.07

## Input Can you check CCCAACGACUGCCGAGCGGGGUUACGCUUGAGCGCCCCACUGAGGAUGCCCACGGGCGAUUGGGGCACGG [A19G A21G] next?
## Output 8.18

## Input Can you check CCCACCGACUGCCGAGCGAGAGUACGCUUGAGCGCCCCACUGAGGAUGCCCACGGGCGAUUGGGGCACGG [A5C U22G] next?
## Output 8.16

## Input Can you check CCCAACGACUGCCGAGCGAGAUGACGCUUGUGCGCCCCACUGAGGAUGCCCACGGGCGAUUGGGGCACGG [U23G A31U] next?
## Output 8.18

## Input Can you check CCCAAGAACUGCCGAGCGAGAUUACGCUUGAGCGCCCCACUGAGGAUGCCCACGGGCGAUUGGGGCACGG [C6G G7A] next?
## Output 8.18

## Input Can you check CCCUACGACUGCCGAGCGAGAUUAGGCUUGAGCGCCCCACUGAGGAUGCCCACGGGCGAUUGGGGCACGG [A4U C25G] next?
## Output 8.22

Origin of values: the RNAGym collection of RNA variant scans (doi:10.1038/nmeth.2970)
